- SYSTEM: T1, full length human TPO-R (human, UniProt P40238 26-635)
- T1 sequence (looked up): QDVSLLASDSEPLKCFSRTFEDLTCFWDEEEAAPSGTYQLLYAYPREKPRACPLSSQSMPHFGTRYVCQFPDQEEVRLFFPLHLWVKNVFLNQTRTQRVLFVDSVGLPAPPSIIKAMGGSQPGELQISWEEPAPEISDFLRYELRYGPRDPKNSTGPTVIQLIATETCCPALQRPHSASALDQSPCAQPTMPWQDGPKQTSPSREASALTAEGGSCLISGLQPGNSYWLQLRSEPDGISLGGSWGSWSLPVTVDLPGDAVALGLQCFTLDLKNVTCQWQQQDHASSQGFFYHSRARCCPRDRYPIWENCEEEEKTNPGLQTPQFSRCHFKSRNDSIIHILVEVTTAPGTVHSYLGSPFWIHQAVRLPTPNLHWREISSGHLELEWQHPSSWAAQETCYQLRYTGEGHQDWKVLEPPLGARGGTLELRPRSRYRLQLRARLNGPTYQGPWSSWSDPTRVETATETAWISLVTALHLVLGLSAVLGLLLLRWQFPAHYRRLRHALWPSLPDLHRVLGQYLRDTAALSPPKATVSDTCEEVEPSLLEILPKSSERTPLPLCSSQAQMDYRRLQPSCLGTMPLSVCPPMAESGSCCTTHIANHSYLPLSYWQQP
- TEST METHOD NOTES: cell-based or functional assay
Bridges are numbered along the chain shown (N, C = ends). Where no end group is shown, it is not given here. [ ]: non-standard residue; d: D form. 2Nal = N[C@@H](Cc1ccc2ccccc2c1)C(=O)O; Phg = N[C@H](C(=O)O)c1ccccc1
Below, each entry is listed with its recorded EC50 microphysiometer.

Reference set, count: 3
[[record]]
binder = "CADGPTLREWIS[2Nal]C (disulfide 1-14 (inferred); not fully specified) [SEQ ID NO:12 cyclized, F - (2-Nal)]"
result = "≤ 500 nM"

[[record]]
binder = "CPTLREWISFC (disulfide 1-11 (inferred); not fully specified) [SEQ ID NO:12 cyclized, ADG - deletion]"
result = "≤ 200000 nM"

[[record]]
binder = "CADGPTLREWIS[Phg]C (disulfide 1-14 (inferred); not fully specified) [SEQ ID NO:12 cyclized, F - (Phenylgly)]"
result = "≤ 500 nM"


[in] So what's the measured EC50 microphysiometer for this one? CADGPTLREWISAC (also: cyclized, mode not given here) [SEQ ID NO:12 cyclized, F - A]
[out] ≤ 200000 nM
